Target: T1, Tau fragment 28-42 (human, UniProt P10636-8 28-42, not fully specified)
T1 construct: range 28-42
T1 peptide (looked up): GYTMHQDQEGDTDAG
Assay: ELISA on Tau 15-mer peptides, O.D.; conditions of this panel not given
Where no end group is shown, it is not given here.
test readout: binding result

[
  {
    "binder": "123E9-A1 (antibody, mouse IgG2a, V domains shown) VH: EVQLQQSGPELVKPGASVKMSCKASGYTFTDYYMKWVKQSHGKSLEWIGDIDPNNGGTSYNQKFKGKATLTVDKSSSTAYMQLNSLTSEDSAVYYCARSAGFGDSFSFWGLGTLVTVSA VL: DVLMTQTPLSLPVSLGDQASISCRSSQSIVHSNGNTYLEWYLQKPGQSPKLLIYKVSNRFSGVPDRFSGSGSGTDFTLKISRVEAEDLGFYYCFQGSHVPPTFGGGTKLEIK",
    "result": "binds"
  },
  {
    "binder": "89F4-A1 (antibody, mouse IgG2a, V domains shown) VH: EVQLVESGGGLVQPKGSLKLSCAASGFTFNTYAMNWVRQAPGKGLEWVARIRSKSNNYAAYFADSVKDRFTISRDDSQTMLYLQMNNLKSEDTAMYYCVSGGNYVPFAYWGQGTLVTVSA VL: NIMMTQSPSSLAVSAGEKVTMSCKSSQSVFYSSEQRNYLAWYQQKPGQSPKLLISWASTRESGVPDRFTGSGSGTDFTLTISSVQGEDLAVYYCHQYLSSFTFGSGTKLEIK",
    "result": "binds"
  }
]
